So I've got a bunch of molecules here, and I need their Encapsulation efficiency (%) values.
Test: Encapsulation efficiency of doxorubicin hydrochloride in siosomes (absorbance at 480 nm after gel filtration)
Assay type: physicochemical
Conditions: Example 18: doxorubicin-siosomes prepared from the single organosilicon compound

Requested read-out: Encapsulation efficiency (%). Entry: `CCCCCCCCCCCC[Si](C)(C)O[C@H]1O[C@H](CO)[C@@H](O)[C@H](O)[C@H]1O`
60-65%

One more molecule: `CCCCCCCCCC[Si](C)(C)O[C@H]1O[C@H](CO)[C@H](O)[C@H](O)[C@H]1O`
65-70%

One more molecule: `CCCCCCCCCCCC[Si](CCCCCCCCCCCC)(CCCCCCCCCCCC)O[C@@H]1O[C@H](COC(C)=O)[C@@H](OC(C)=O)[C@H](OC(C)=O)[C@H]1OC(C)=O`
55-60%

One more molecule: C[Si](C)(CCCCCCCCCC(=O)O)CCOC1O[C@H](CO)[C@H](O)[C@H](O)[C@H]1N (some centres unmarked)
70-80%

One more molecule: `CCCCCCCCCCCCCCCCCC[Si](CCCCCCCCCCCCCCCCCC)(O[C@@H]1O[C@H](COC(C)=O)[C@H](OC(C)=O)[C@H](OC(C)=O)[C@H]1OC(C)=O)O[C@@H]1O[C@H](COC(C)=O)[C@H](OC(C)=O)[C@H](OC(C)=O)[C@H]1OC(C)=O`
70-78%

One more molecule: `CCCCCCCCCCCCCCCCCC[Si](CCCCCCCCCCCCCCCCCC)(O[C@@H]1O[C@H](COC(C)=O)[C@@H](OC(C)=O)[C@H](OC(C)=O)[C@H]1OC(C)=O)O[C@@H]1O[C@H](COC(C)=O)[C@@H](OC(C)=O)[C@H](OC(C)=O)[C@H]1OC(C)=O`
75-80%

One more molecule: `CCCCCCCCCCCC[Si](CCCCCCCCCCCC)(O[C@@H]1O[C@H](COC(C)=O)[C@@H](OC(C)=O)[C@H](OC(C)=O)[C@H]1OC(C)=O)O[C@@H]1O[C@H](COC(C)=O)[C@@H](OC(C)=O)[C@H](OC(C)=O)[C@H]1OC(C)=O`
80-85%

One more molecule: `CCCCCCCCCC(=O)O[Si](C)(C)OC(=O)CCCCCCCCC`
60-75%

One more molecule: `CCCCCCCCCC[Si](C)(C)CCO[C@@H]1O[C@H](C(=O)O)[C@@H](O)[C@H](O)[C@H]1O`
75-80%

One more molecule: `C[Si](C)(CCCCCCCCC(=O)O)CCO[C@@H]1O[C@H](CO)[C@@H](O)[C@H](O)[C@H]1O`
70-80%

One more molecule: `CCCCCCCCCC[Si](C)(C)CCO[C@@H]1O[C@H](COS(=O)(=O)O)[C@@H](O)[C@H](O)[C@H]1O`
60-70%

All values here come from patent EP2563337B1.
